B1: CPEB3 Ribozyme (parent)
chain: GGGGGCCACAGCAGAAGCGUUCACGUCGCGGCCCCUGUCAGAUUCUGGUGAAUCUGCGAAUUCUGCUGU

# Variants of: B1
# procedure_text: self-cleavage, relative activity (ratio to wild type); higher = more cleavage; co-transcriptional
recorded_endpoint: self-cleavage
// return a plain number; no unit text

- alteration: "G4A A13U"
  self-cleavage: 0.66
- alteration: "C6G C27G"
  self-cleavage: 0.0563
- alteration: "G14A C27A"
  self-cleavage: 0.14

In: Data request, read-out self-cleavage, for C29G A42U
Out: 0.385

In: Data request, read-out self-cleavage, for C6U U49C
Out: 1.02

In: Data request, read-out self-cleavage, for C7U G65C
Out: 0.604

In: Data request, read-out self-cleavage, for G17C G58A
Out: 0.139
